Origin of values: ChEMBL document CHEMBL4002562

Here, each record is paired with measured pIC50 data.
# Test system: L02
# Assay explanation: Cytotoxicity against human HL-7702 cells after 48 hrs by MTT assay
# Type: cell-based
# Measurement parameters: L02, 48 h
pIC50: −log10 of the molar value.

Would you please look over these solved cases?
CC[C@H](C)[C@H](NC(=S)Nc1cccc([N+](=O)[O-])c1)C(=O)N[C@H](Cc1ccccc1)C(=O)Nc1ccc(Cl)c(Cl)c1; < 4.30
CC[C@H](C)[C@H](/N=C(/Nc1cccc(C(F)(F)F)c1)SC)C(=O)N[C@H](Cc1ccccc1)C(=O)Nc1cccc(C(F)(F)F)c1; < 4.30
CC[C@H](C)[C@H](NC(=S)Nc1cccc(C(F)(F)F)c1)C(=O)N[C@H](Cc1ccccc1)C(=O)Nc1ccc(Cl)c(Cl)c1; < 4.30
COc1cccc2c1C(=O)c1c(O)c3c(c(O)c1C2=O)C[C@@](O)(C(=O)CO)C[C@@H]3O[C@H]1C[C@H](N)[C@H](O)[C@H](C)O1; 4.91
CC[C@H](C)[C@H](NC(=S)Nc1cccc([N+](=O)[O-])c1)C(=O)N[C@H](Cc1ccccc1)C(=O)Nc1cccc(F)c1; < 4.30

Data request: Name the reported pIC50 value associated with the compound CC[C@H](C)[C@H](NC(=S)Nc1cccc([N+](=O)[O-])c1)C(=O)N[C@H](Cc1ccccc1)C(=O)Nc1cccc(Cl)c1
Data returned: < 4.30

====

# Test system: Proteasome Macropain subunit MB1 (Homo sapiens, UniProt P28074)
# Sequence (P28074 whole entry): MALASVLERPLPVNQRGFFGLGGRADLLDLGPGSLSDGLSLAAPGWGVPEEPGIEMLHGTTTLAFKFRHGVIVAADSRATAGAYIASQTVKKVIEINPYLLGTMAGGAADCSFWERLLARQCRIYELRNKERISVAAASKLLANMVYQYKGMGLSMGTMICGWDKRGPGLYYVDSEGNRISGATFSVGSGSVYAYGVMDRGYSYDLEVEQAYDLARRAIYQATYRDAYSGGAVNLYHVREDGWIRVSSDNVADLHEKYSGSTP
# Assay explanation: Inhibition of chymotrypsin-like activity of human 20S proteasome using Suc-LLVY-AMC as substrate by fluorometric method
Recorded pIC50, one value per entry.
Recall that pIC50 is obtained by taking minus log10 of the concentration measured in molar.

CC[C@H](C)[C@H](NC(=S)Nc1cccc([N+](=O)[O-])c1)C(=O)N[C@H](Cc1ccccc1)C(=O)Nc1ccc(F)cc1; 5.71

Data request: May I ask what pIC50 has been recorded for CC[C@H](C)[C@H](NC(=S)Nc1cccc(C(F)(F)F)c1)C(=O)N[C@H](Cc1ccccc1)C(=O)Nc1ccc(Cl)c(Cl)c1 ?
Data returned: 7.77

====

# Tested on: NCI-H460
# Assay explanation: Resistant factor, ratio of IC50 for human doxorubicin-resistant NCI-H460 cells to IC50 for human NCI-H460 cells
# Assay type: functional
Outcome measure: Ratio IC50
Just the number.

CC[C@H](C)[C@H](NC(=S)Nc1cccc([N+](=O)[O-])c1)C(=O)N[C@H](Cc1ccccc1)C(=O)Nc1cccc(F)c1; 2.33

Data request: Entry CC[C@H](C)[C@H](NC(=S)Nc1cccc([N+](=O)[O-])c1)C(=O)N[C@H](Cc1ccccc1)C(=O)Nc1ccc(Br)cc1 has what Ratio IC50?
Data returned: 2.18

Data request: For the molecule CC[C@H](C)[C@H](NC(=S)Nc1cccc([N+](=O)[O-])c1)C(=O)N[C@H](Cc1ccccc1)C(=O)Nc1cccc(Cl)c1 , what Ratio IC50 is on record?
Data returned: 2.32

Data request: Param item = CC[C@H](C)[C@H](NC(=S)Nc1cccc(C(F)(F)F)c1)C(=O)N[C@H](Cc1ccccc1)C(=O)Nc1ccc(Cl)c(Cl)c1 ; retrieve measured Ratio IC50.
Data returned: 2.52

====

pIC50 listing for selected compounds.
# Test system: Proteasome Macropain subunit MB1 (Homo sapiens, UniProt P28074)
# Assay explanation: Inhibition of chymotrypsin-like activity of human 20S proteasome using Suc-LLVY-AMC as substrate by fluorometric method
pIC50: −log10 of the molar value.

Recorded results for 2 compounds are shown here.
CC[C@H](C)[C@H](/N=C(/Nc1cccc([N+](=O)[O-])c1)SC)C(=O)N[C@H](Cc1ccccc1)C(=O)Nc1ccc(C)c(C)c1; < 4.30
CC[C@H](C)[C@H](NC(=S)Nc1cccc([N+](=O)[O-])c1)C(=O)N[C@H](Cc1ccccc1)C(=O)Nc1ccc(C)c(C)c1; < 4.30

Data request: Which pIC50 reading was recorded for the compound CC[C@H](C)[C@H](NC(=S)Nc1cccc([N+](=O)[O-])c1)C(=O)N[C@H](Cc1ccccc1)C(=O)Nc1ccc(C)c(Cl)c1 ?
Data returned: < 4.30
